STUDY_SYSTEM: Asparagine synthetase [glutamine-hydrolyzing] (Mus musculus)
PROTOCOL_DESCRIPTION: Inhibition of asparagine synthetase in mouse L5178Y/AR cells at 10 mM
Format: cell-based
Calls of active or inactive are those of the source. The calls are words filed in the database; no cut-off is given here.
EXPERIMENTAL_READOUT: inhibition

[[record]]
smi = "N[C@@H](CS(=O)(=O)NNC(=O)c1ccc(S(=O)(=O)F)cc1)C(=O)O"
study_system = "Asparagine synthetase [glutamine-hydrolyzing] (Mus musculus)"
value_observed = "inactive"

[[record]]
smi = "N[C@@H](CS(=O)(=O)NO)C(=O)O"
study_system = "Asparagine synthetase [glutamine-hydrolyzing] (Mus musculus)"
value_observed = "81%"

[[record]]
smi = "CCOC(=O)/C=C/C(=O)NNS(=O)(=O)C[C@H](N)C(=O)O"
study_system = "Asparagine synthetase [glutamine-hydrolyzing] (Mus musculus)"
value_observed = "inactive"

[[record]]
smi = "N[C@@H](CS(=O)(=O)NCc1ccc(S(=O)(=O)F)cc1)C(=O)O"
study_system = "Asparagine synthetase [glutamine-hydrolyzing] (Mus musculus)"
value_observed = "inactive"


====

STUDY_SYSTEM: Asparagine synthetase [glutamine-hydrolyzing] (Rattus norvegicus) (UniProt P49088)
Sequence (P49088 whole entry): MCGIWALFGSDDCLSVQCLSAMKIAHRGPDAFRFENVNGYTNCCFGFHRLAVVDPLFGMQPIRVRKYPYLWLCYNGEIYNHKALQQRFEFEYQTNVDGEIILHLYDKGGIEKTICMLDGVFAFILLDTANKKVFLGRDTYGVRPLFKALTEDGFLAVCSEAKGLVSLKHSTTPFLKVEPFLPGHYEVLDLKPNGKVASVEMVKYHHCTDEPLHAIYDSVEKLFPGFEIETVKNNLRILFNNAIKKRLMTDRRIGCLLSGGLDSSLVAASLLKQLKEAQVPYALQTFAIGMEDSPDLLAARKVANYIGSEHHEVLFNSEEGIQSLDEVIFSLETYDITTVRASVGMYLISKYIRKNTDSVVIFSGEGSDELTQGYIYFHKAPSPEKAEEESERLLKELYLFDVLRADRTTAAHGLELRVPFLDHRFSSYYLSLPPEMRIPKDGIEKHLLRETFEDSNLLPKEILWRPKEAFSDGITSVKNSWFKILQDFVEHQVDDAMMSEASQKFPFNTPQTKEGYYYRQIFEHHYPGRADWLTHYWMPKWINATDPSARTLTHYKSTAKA
PROTOCOL_DESCRIPTION: Inhibition of asparagine synthetase isolated from rat bearing Novikoff hepatoma cells using [14C]-L-aspartic acid as substrate at 2 mM incubated 15 mins prior to substrate addition measured after 30 mins
EXPERIMENTAL_READOUT: inhibition

[[record]]
smi = "N[C@@H](CS(=O)(=O)NO)C(=O)O"
study_system = "Asparagine synthetase [glutamine-hydrolyzing] (Rattus norvegicus) (UniProt P49088)"
value_observed = "96.5%"

[[record]]
smi = "CCOC(=O)/C=C/C(=O)NNS(=O)(=O)C[C@H](N)C(=O)O"
study_system = "Asparagine synthetase [glutamine-hydrolyzing] (Rattus norvegicus) (UniProt P49088)"
value_observed = "37.3%"

[[record]]
smi = "N[C@@H](CS(N)(=O)=O)C(=O)O"
study_system = "Asparagine synthetase [glutamine-hydrolyzing] (Rattus norvegicus) (UniProt P49088)"
value_observed = "25.8%"

[[record]]
smi = "N[C@@H](CS(=O)(=O)NNC(=O)c1ccc(S(=O)(=O)F)cc1)C(=O)O"
study_system = "Asparagine synthetase [glutamine-hydrolyzing] (Rattus norvegicus) (UniProt P49088)"
value_observed = "43.1%"

[[record]]
smi = "N[C@@H](CS(=O)(=O)NCc1ccc(S(=O)(=O)F)cc1)C(=O)O"
study_system = "Asparagine synthetase [glutamine-hydrolyzing] (Rattus norvegicus) (UniProt P49088)"
value_observed = "29.5%"

[[record]]
smi = "N[C@@H](CS(=O)(=O)NCCCl)C(=O)O"
study_system = "Asparagine synthetase [glutamine-hydrolyzing] (Rattus norvegicus) (UniProt P49088)"
value_observed = "0%"

[[record]]
smi = "N[C@@H](CC(=O)NO)C(=O)O"
study_system = "Asparagine synthetase [glutamine-hydrolyzing] (Rattus norvegicus) (UniProt P49088)"
value_observed = "15.8%"


Values compiled from ChEMBL document CHEMBL3243960.
